Experiment: Buffer Stability (37° C.)
Conditions: pH 7.4
Recorded Buffer Stability (37° C.) % Remaining (at 16-23 hours) pH 7.4 by entry
propertyName: Buffer Stability (37° C.) % Remaining (at 16-23 hours) pH 7.4

>>> reportedmeasurement("COc1ccc2c(c1)c(/C=C1\\Oc3cc(O)cc(O)c3C1=O)cn2CCCN(C)C")
"82%"
>>> reportedmeasurement("COc1ccc2c(c1)c(/C=C1\\Oc3cc(OC(=O)N(C(C)C)C(C)C)ccc3C1=O)c(C)n2CCN1CCN(C)CC1")
"100%"
>>> reportedmeasurement("COc1ccc2c(c1)c(/C=C1\\Oc3cc(OC(=O)N(C)C)cc(OC(=O)N(C)C)c3C1=O)cn2CCCN(C)C")
"100%"

* * *

Test: PAMPA permeability pH 7.4
propertyName: PAMPA Pe

>>> reportedmeasurement("COC(=O)Oc1cc(OC(=O)OC)c2c(c1)O/C(=C\\c1cn(CCCN(C)C)c3ccc(OC)cc13)C2=O [Example 13]")
"0.19 10e−6 cm/s"
>>> reportedmeasurement("COc1ccc2c(c1)c(/C=C1\\Oc3cc(O)cc(O)c3C1=O)cn2CCCN(C)C")
"0 10e−6 cm/s"
>>> reportedmeasurement("COc1ccc2c(c1)c(/C=C1\\Oc3cc(OC(=O)N(c4ccccc4)c4ccccc4)cc(OC(=O)N(c4ccccc4)c4ccccc4)c3C1=O)c(C)n2CCN1CCN(C)CC1 [Example 29]")
"0 10e−6 cm/s"
>>> reportedmeasurement("COc1ccc2[nH]c(-c3ccccc3)c(/C=C3\\Oc4cc(O)ccc4C3=O)c2c1")
"0.18 10e−6 cm/s"
>>> reportedmeasurement("COc1ccc2c(c1)c(/C=C1\\Oc3cc(O)cc(OC(=O)N(C)C)c3C1=O)c(C)n2CCN1CCN(C)CC1 [Example 39]")
"0 10e−6 cm/s"
>>> reportedmeasurement("COc1ccc2[nH]c(-c3ccccc3)c(/C=C3\\Oc4cc(OC(=O)Oc5ccccc5)cc(OC(=O)Oc5ccccc5)c4C3=O)c2c1 [Example 23]")
"0 10e−6 cm/s"
>>> reportedmeasurement("COc1ccc2c(c1)c(/C=C1\\Oc3cc(OC(=O)N(c4ccccc4)c4ccccc4)cc(OC(=O)N(c4ccccc4)c4ccccc4)c3C1=O)cn2CCCN(C)C [Example 21]")
"0 10e−6 cm/s"
>>> reportedmeasurement("COc1ccc2[nH]c(-c3ccccc3)c(/C=C3\\Oc4cc(OC(=O)N(C)C)cc(OC(=O)N(C)C)c4C3=O)c2c1 [Example 30]")
"0 10e−6 cm/s"
>>> reportedmeasurement("COc1ccc2c(c1)c(/C=C1\\Oc3cc(OC(=O)CC(C)C)cc(OC(=O)CC(C)C)c3C1=O)cn2CCCN(C)C [Example 9]")
"0 10e−6 cm/s"
>>> reportedmeasurement("CCOP(=O)(OCC)Oc1cc2c(c(OP(=O)(OCC)OCC)c1)C(=O)/C(=C/c1c(-c3ccccc3)[nH]c3ccc(OC)cc13)O2 [Example 32]")
"0 10e−6 cm/s"
>>> reportedmeasurement("CNC(=O)Oc1ccc2c(c1)C(=O)/C(=C/c1cn(CCN3CCN(C)CC3)c3ccc(OC)cc13)O2 [Example 45]")
"0.43 10e−6 cm/s"
>>> reportedmeasurement("COc1ccc2c(c1)c(/C=C1\\Oc3cc(OC(=O)N(C)C)cc(OC(=O)N(C)C)c3C1=O)c(C)n2CCN1CCN(C)CC1 [Example 12]")
"0.78 10e−6 cm/s"
>>> reportedmeasurement("CN(C)C(=O)Oc1cc(OC(=O)N(C)C)c2c(c1)O/C(=C\\c1cn(C)c3cccc(-c4ccccc4)c13)C2=O [Example 48]")
"Undetected"
>>> reportedmeasurement("COc1ccc2[nH]c(-c3ccccc3)c(/C=C3\\Oc4cc(OC(=O)N(c5ccccc5)c5ccccc5)ccc4C3=O)c2c1 [Example 20]")
"Undetected"
>>> reportedmeasurement("COC(=O)Oc1cc(OC(=O)OC)c2c(c1)O/C(=C\\c1c(-c3ccccc3)[nH]c3ccc(OC)cc13)C2=O [Example 22]")
"0 10e−6 cm/s"
>>> reportedmeasurement("COc1ccc2c(c1)c(/C=C1\\Oc3cc(O)ccc3C1=O)c(C)n2CCN1CCN(C)CC1")
"0.01 10e−6 cm/s"
>>> reportedmeasurement("COc1ccc2[nH]c(-c3ccccc3)c(/C=C3\\Oc4cc(OC(=O)c5ccccc5)cc(OC(=O)c5ccccc5)c4C3=O)c2c1 [Example 6]")
"0.12 10e−6 cm/s"
>>> reportedmeasurement("CN(C)C(=O)Oc1cc(OC(=O)N(C)C)c2c(c1)O/C(=C\\c1cn(C)c3nccc(-c4ccccc4)c13)C2=O [Example 43]")
"Undetected"

* * *

Assay: In vivo blood/plasma and tumor levels of prodrug and metabolites after 50 mg, kg po
Details: 50 mg, 0.5 h
Recorded plasma prodrug concentration by entry
propertyName: plasma prodrug concentration

>>> reportedmeasurement("COc1ccc2c(c1)c(/C=C1\\Oc3cc(OC(=O)N(C(C)C)C(C)C)cc(OC(=O)N(C(C)C)C(C)C)c3C1=O)c(C)n2CCN1CCN(C)CC1")
"1141, ng, ml"
>>> reportedmeasurement("COc1ccc2[nH]c(-c3ccccc3)c(/C=C3\\Oc4cc(OC(=O)N(C)C)cc(OC(=O)N(C)C)c4C3=O)c2c1")
"29 ng, ml"
>>> reportedmeasurement("CCOP(=O)(OCC)Oc1ccc2c(c1)O/C(=C\\c1c(-c3ccccc3)[nH]c3ccc(OC)cc13)C2=O")
"6 ng, ml"
>>> reportedmeasurement("COc1ccc2c(c1)c(/C=C1\\Oc3cc(OC(=O)N(C)c4ccccc4)cc(OC(=O)N(C)c4ccccc4)c3C1=O)cn2CCCN(C)C")
"486 ng, ml"

* * *

Target: mTOR (Homo sapiens, UniProt P42345)
Assay: mTOR Enzyme Assay (DELFIA, purified enzyme)
Format: biochemical
Design: FLAG
Conditions: read-out: mTOR Mean IC50
pIC50: −log10 of the molar value.
Recorded pIC50 by entry
propertyName: pIC50

>>> reportedmeasurement("COc1ccc2c(c1)c(/C=C1\\Oc3ccc(O)cc3C1=O)c(C)n2CCN1CCN(C)CC1")
5.98
>>> reportedmeasurement("CN(C)C(=O)Oc1cc(OC(=O)N(C)C)c2c(c1)O/C(=C\\c1cn(C)c3cccc(-c4ccccc4)c13)C2=O")
5.50
>>> reportedmeasurement("COc1ccc2[nH]c(-c3ccccc3)c(/C=C3\\Oc4cc(OC(=O)N(C(C)C)C(C)C)cc(OC(=O)N(C(C)C)C(C)C)c4C3=O)c2c1")
6.29
>>> reportedmeasurement("COc1ccc2c(c1)c(/C=C1\\Oc3cc(O)ccc3C1=O)c(C)n2CCN1CCN(C)CC1")
6.49
>>> reportedmeasurement("COc1ccc2c(c1)c(/C=C1\\Oc3cc(OC(=O)N4CCN(C)CC4)cc(OC(=O)N4CCN(C)CC4)c3C1=O)cn2CCCN(C)C")
5.97

* * *

Assay: Buffer Stability (37° C.)
Settings: pH 6.6
Recorded Buffer Stability (37° C.) % Remaining (at 16-23 hours) pH 6.6 by entry
propertyName: Buffer Stability (37° C.) % Remaining (at 16-23 hours) pH 6.6 (%)

>>> reportedmeasurement("COC(=O)Oc1cc(OC(=O)OC)c2c(c1)O/C(=C\\c1c(-c3ccccc3)[nH]c3ccc(OC)cc13)C2=O")
42
>>> reportedmeasurement("COc1ccc2c(c1)c(/C=C1\\Oc3cc(OC(=O)N(C(C)C)C(C)C)ccc3C1=O)c(C)n2CCN1CCN(C)CC1")
95
>>> reportedmeasurement("COc1ccc2[nH]c(-c3ccccc3)c(/C=C3\\Oc4cc(OC(=O)C(C)(C)C)cc(OC(=O)C(C)(C)C)c4C3=O)c2c1")
72
>>> reportedmeasurement("COc1ccc2c(c1)c(/C=C1\\Oc3cc(OC(=O)N(C)c4ccccc4)cc(OC(=O)N(C)c4ccccc4)c3C1=O)cn2CCCN(C)C")
100
>>> reportedmeasurement("COc1ccc2c(c1)c(/C=C1\\Oc3cc(OC(=O)N(C)c4ccccc4)ccc3C1=O)c(C)n2CCN1CCN(C)CC1")
98
>>> reportedmeasurement("CN(C)C(=O)Oc1cc(OC(=O)N(C)C)c2c(c1)O/C(=C\\c1cn(C)c3nccc(-c4ccccc4)c13)C2=O")
100
>>> reportedmeasurement("COc1ccc2c(c1)c(/C=C1\\Oc3cc(O)cc(O)c3C1=O)cn2CCCN(C)C")
83
>>> reportedmeasurement("COc1ccc2[nH]c(-c3ccccc3)c(/C=C3\\Oc4cc(OC(=O)Oc5ccccc5)ccc4C3=O)c2c1")
60
>>> reportedmeasurement("CN(C)C(=O)Oc1cccc2c1C(=O)/C(=C/c1cn(C)c3nccc(N4CC5CCC(C4)O5)c13)O2")
100
>>> reportedmeasurement("COc1ccc2c(c1)c(/C=C1\\Oc3cc(OC(=O)C(C)(C)C)cc(OC(=O)C(C)(C)C)c3C1=O)cn2CCCN(C)C")
79
>>> reportedmeasurement("COc1ccc2c(c1)c(/C=C1\\Oc3cc(OC(=O)c4ccccc4)cc(OC(=O)c4ccccc4)c3C1=O)c(C)n2CCN1CCN(C)CC1")
75
>>> reportedmeasurement("COc1ccc2[nH]c(-c3ccccc3)c(/C=C3\\Oc4cc(O)ccc4C3=O)c2c1")
98
